Test system: A549 NSCLC
experimental details: NCI tumour cell line growth inhibition, 48 h
Field: TGI. Provide a value for each of the compounds that follow.

With A549 NSCLC as the test system, `Cc1ncc(COP(=O)(O)O)c(C)c1O` showed TGI of > 100 µM

With A549 NSCLC as the test system, `Cc1ncc([N+](=O)[O-])n1CCNC(=O)Cn1ccnc1[N+](=O)[O-]` showed TGI of > 100 µM

With A549 NSCLC as the test system, `O=C1CC2(CCNCC2)C(=O)N1N1CCCCC1` showed TGI of > 100 µM

With A549 NSCLC as the test system, `O=C([CH-]C(=O)c1ccccc1)c1ccccc1.[CH3-].[CH3-].[CH3-].[Sn+4]` showed TGI of > 100 µM

With A549 NSCLC as the test system, `CC(=O)Oc1ccccc1C(=O)NCCC[Se]C#N` showed TGI of 3.6 µM

With A549 NSCLC as the test system, `CCCC(CCC)Oc1ccc(CCCC2=C(O)c3ccccc3C(=O)C2=O)cc1` showed TGI of 22.4 µM

With A549 NSCLC as the test system, `C=C1C(=O)O[C@H]2[C@H]1CC/C(COC(=O)C(=O)c1c[nH]c3ccc(Cl)cc13)=C\CC[C@@]1(C)O[C@@H]21` showed TGI of 6.03 µM

With A549 NSCLC as the test system, `CCOC(=O)Nc1ccc(C(=O)/C=C/c2ccccc2)cc1` showed TGI of > 100 µM

With A549 NSCLC as the test system, `COc1ccc(OC)c([N+](=O)[O-])c1-c1nc2sc(C)c(C)n2c1/C=N/N=C(N)N` showed TGI of > 100 µM

With A549 NSCLC as the test system, `N=C1N=C(N)S/C1=C\c1ccc2ncccc2c1` showed TGI of > 25 µM

With A549 NSCLC as the test system, Nc1ncc(N)c(NCC2(CO)CC(CCc3ccccc3)C2)n1 (stereo unspecified) showed TGI of 28.8 µM

With A549 NSCLC as the test system, CNc1cccc2c1C(C)C[C@]1(C)C(=O)Nc3ccccc3[C@H]21 (stereo partly specified) showed TGI of 38.6 µM

With A549 NSCLC as the test system, `COc1ccc(Nc2ncc(-c3ccccc3)o2)cc1OC` showed TGI of > 25 µM

With A549 NSCLC as the test system, CC(=O)C(N=NC1CCC(S(=O)(=O)NB2N=CS2)CC1)C(=O)Nc1ccccc1C (stereo unspecified) showed TGI of 28.6 µM

With A549 NSCLC as the test system, NC1=NCC(c2ccccn2)C1c1ccc(F)cc1 (stereo unspecified) showed TGI of > 100 µM

With A549 NSCLC as the test system, `O=C(c1ccccc1)c1ccc(O)c2ncccc12` showed TGI of > 100 µM

With A549 NSCLC as the test system, COc1ccc(C2SCC(=O)N2NC(=O)C(O)c2ccccc2)cc1 (stereo unspecified) showed TGI of > 100 µM

With A549 NSCLC as the test system, `C[n+]1cc2cc3c(cc2c2ccccc21)OCO3` showed TGI of 14.4 µM

With A549 NSCLC as the test system, `C=C(C)CCN(C(=O)OC(C)(C)C)c1cc(C(C)C)co1` showed TGI of > 100 µM

With A549 NSCLC as the test system, CC(=O)OC1CC2C(C)(C)OC(=O)CC(OC(C)=O)[C@]2(C)C2CCC3(C)C(=CCC3c3ccoc3)[C@]12C (stereo partly specified) showed TGI of > 100 µM

With A549 NSCLC as the test system, `CN(C)c1cccc(/C=C(\C#N)c2ccccc2)c1` showed TGI of > 79.9 µM

====

System: OVCAR-3 ovarian
experimental details: NCI tumour cell line growth inhibition, 48 h
measured attribute: TGI (µM)
Give your result in µM as a bare value.

Lab note: measured TGI of O=C(Nc1ccccc1[N+](=O)[O-])C(=O)C(C(=O)c1ccccc1-c1ccccc1)C1OC(=O)c2ccccc21 (stereo not given) was 28

Lab note: measured TGI of `C=C(CN(C)Cc1ccccc1)c1ccc(C(=O)Nc2ccccc2N)cc1` was 16

====

Tested on: 786-0 renal
experimental details: NCI tumour cell line growth inhibition, 48 h
measured attribute: TGI

Lab note: measured TGI of CC(=O)c1c(C)cc2cccc(OC3OC(CO)C(O)C(O)C3O)c2c1O (stereo not drawn) (tested in a mixture with another compound) was > 100 µM

Lab note: measured TGI of CN(C)CCN=C1Nc2ccccc2C(=O)N2CSCC12 (stereo not drawn) was > 100 µM

Lab note: measured TGI of COC(=O)C1Cc2c([nH]c3ccccc23)-c2[nH]c3ccccc3c2CC(NC(C)=O)C(=O)NCC(=O)NCC(=O)N1 (stereo not drawn) was > 100 µM

====

Tested on: SK-OV-3 ovarian
experimental details: NCI tumour cell line growth inhibition, 48 h
Field: TGI. Provide a value for each of the compounds that follow.

Lab note: measured TGI of CC(C)(C)[Si](C)(C)OCCC1CC2(S(=O)(=O)C3=CC=C=C=C3)ON1CC2S(=O)(=O)c1ccccc1 (configuration not stated) was > 100 µM

Lab note: measured TGI of `CCNC1=C(NC(=O)c2ccc(OC)cc2)C(=O)c2ccccc2C1=O` was > 100 µM

Lab note: measured TGI of O=C(Nc1ccccc1[N+](=O)[O-])C(=O)C(C(=O)c1ccccc1-c1ccccc1)C1OC(=O)c2ccccc21 (configuration not stated) was > 100 µM

Lab note: measured TGI of N#CSCC1CC(O)(c2ccccc2)CC(c2ccc(Cl)cc2)O1 (configuration not stated) was 27.5 µM

Lab note: measured TGI of `Cc1ccc(S(=O)(=O)N[C@@H](Cc2ccccc2)C(=O)CCl)cc1` was > 100 µM

Lab note: measured TGI of `CNC(=O)/C(=C/c1ccc(OC)cc1)c1cc(OC)c(OC)c(OC)c1` was 29 µM

Lab note: measured TGI of COc1ccc(C2SCC(=O)N2NC(=O)C(O)c2ccccc2)cc1 (configuration not stated) was > 100 µM

Lab note: measured TGI of `CC(=O)c1c2c(cc3c1CC1(C3)Cc3cc4c(c(C(C)=O)c3C1)CCCC4)CCCC2` was > 100 µM

Lab note: measured TGI of COc1ccc(C(c2cc(OC)c(OC)c(OC)c2)N2C(=O)CCC2C(=O)O)cc1 (configuration not stated) was > 100 µM

Lab note: measured TGI of COc1cc(/C=C2\NC(=S)C3Cc4c(OC)c(C)c(OC)c(OC)c4C2N3C)c(OC)c(C)c1OC (configuration not stated) was > 100 µM

Lab note: measured TGI of NC(=S)N/N=C1\CC(c2ccccc2)Nc2ccccc21 (configuration not stated) was > 100 µM

Lab note: measured TGI of `Cc1cc(Cl)ccc1N1C(=O)C(=O)C(c2nc3ccccc3o2)C(=O)C1=O` was > 100 µM

Lab note: measured TGI of `CCCC(CCC)Oc1ccc(CCCC2=C(O)c3ccccc3C(=O)C2=O)cc1` was 28.3 µM

Lab note: measured TGI of `O=C(O)c1cc2cc(O)ccc2[nH]1` was > 100 µM

Lab note: measured TGI of `C=C1C(=O)O[C@H]2[C@H]1CC/C(COC(=O)C(=O)c1c[nH]c3ccc(Cl)cc13)=C\CC[C@@]1(C)O[C@@H]21` was 24.1 µM

Lab note: measured TGI of `Cc1c(-c2ccccc2)c(C#N)c2nnn(C)c(=O)n12` was > 100 µM

Lab note: measured TGI of `Cn1nc(S(N)(=O)=O)s/c1=N/S(=O)(=O)c1ccc(N)cc1` was > 100 µM

Lab note: measured TGI of `O=C(c1ccccc1)c1ccc(O)c2ncccc12` was 19.1 µM

Lab note: measured TGI of CC1CN=C(NS(=O)(=O)c2cc(C(=O)Nc3ccccc3)c(Cl)cc2S)NN1 (configuration not stated) was > 100 µM

Lab note: measured TGI of `O=S(=O)([O-])[O-].[Fe+2].[OH2+]c1c(Cl)cc(Cl)cc1/C=N/Nc1ccccn1` was 3.7 µM

Lab note: measured TGI of C=CCN(N=O)C(=O)N(CCCCC(NC(C)=O)C(=O)NCc1ccccc1)Cc1ccccc1 (configuration not stated) was > 100 µM

Lab note: measured TGI of Nc1ncc(N)c(NCC2(CO)CC(CCc3ccccc3)C2)n1 (configuration not stated) was 25.4 µM

Lab note: measured TGI of CC(=O)N1N=C(c2ccc(Nc3nc(Nc4ccc(F)cc4)nc(Nc4ccc(Cl)cc4)n3)cc2)CC1c1ccc(N(C)C)cc1 (configuration not stated) was > 31.2 µM

Lab note: measured TGI of `Cc1ncc([N+](=O)[O-])n1CCNC(=O)Cn1ccnc1[N+](=O)[O-]` was > 100 µM

Lab note: measured TGI of `C=C(C[C@@H](O)[C@H](C)NC(=O)OCc1ccccc1)C(=O)OC(C)(C)C` was > 100 µM

Lab note: measured TGI of CCOC(=O)C(O)Cc1cnc2ccccc2n1 (configuration not stated) was > 100 µM

Lab note: measured TGI of `CC(C)c1ccc(/C=N/N=C(N)N)cc1` was 13 µM

Origin of values: PubChem BioAssay (NCI)
